# TARGET_DESC: human GluR3 (Homo sapiens)
# Construct: expressed in transfected cells; host or cells: HEK293
# METHOD_NOTES: Electrophysiological (patch-clamp) functional studies on transfected HEK293 cells
# Format: cell-based
# RECORDED_CONDITIONS: vs 100 mμ AMPA
READOUT_KIND: EC50

# input // returns reported EC50 for input CC(C)(C)c1onc(O)c1CC(N)C(=O)O (stereo not shown)
# output > 300 µM

---

# TARGET_DESC: human GluR4 (Homo sapiens, UniProt P48058)
# Sequence (P48058 21-902): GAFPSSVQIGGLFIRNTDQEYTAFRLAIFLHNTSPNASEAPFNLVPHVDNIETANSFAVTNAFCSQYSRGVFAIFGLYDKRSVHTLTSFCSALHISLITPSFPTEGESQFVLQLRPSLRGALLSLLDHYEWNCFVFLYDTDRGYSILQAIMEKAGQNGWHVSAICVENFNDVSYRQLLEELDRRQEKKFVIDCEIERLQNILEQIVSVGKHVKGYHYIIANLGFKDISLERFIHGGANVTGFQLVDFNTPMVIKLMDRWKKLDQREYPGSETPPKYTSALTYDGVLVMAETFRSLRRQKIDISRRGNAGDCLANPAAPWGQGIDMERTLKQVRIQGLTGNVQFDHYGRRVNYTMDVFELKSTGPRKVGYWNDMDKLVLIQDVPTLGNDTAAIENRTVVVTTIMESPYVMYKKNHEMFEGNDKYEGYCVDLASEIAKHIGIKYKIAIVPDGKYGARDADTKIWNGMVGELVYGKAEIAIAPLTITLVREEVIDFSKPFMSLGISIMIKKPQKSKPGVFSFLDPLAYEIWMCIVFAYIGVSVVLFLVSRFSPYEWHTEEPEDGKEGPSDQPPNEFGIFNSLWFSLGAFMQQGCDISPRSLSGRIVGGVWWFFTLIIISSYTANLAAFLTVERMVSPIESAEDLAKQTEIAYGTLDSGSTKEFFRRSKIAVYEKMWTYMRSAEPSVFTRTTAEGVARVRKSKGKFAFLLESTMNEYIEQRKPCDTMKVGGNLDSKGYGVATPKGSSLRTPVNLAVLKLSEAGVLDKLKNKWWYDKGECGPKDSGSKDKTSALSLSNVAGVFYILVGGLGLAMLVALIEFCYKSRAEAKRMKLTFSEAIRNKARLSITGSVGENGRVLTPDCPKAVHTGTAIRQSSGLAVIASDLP
# METHOD_NOTES: Electrophysiological (patch-clamp) functional studies on transfected HEK293 cells
# RECORDED_CONDITIONS: vs 100 mμ AMPA
# Text: Activity of compounds acting at the kainate receptor, GluR5, can be determined by radiolabeled ligand binding studies at the cloned and expressed human GluR5 receptor (Korczak et al., 1994, Recept. Channels 3; 41-49), and by whole cell voltage clamp electrophysiological recordings of currents in acutely isolated rat dorsal root ganglion neurons (Bleakman et al., 1996, Mol. Pharmacol. 49; 581-585). […]
READOUT_KIND: EC50

# input // returns reported EC50 for input CC(C)(C)c1onc(O)c1CC(N)C(=O)O (stereo not shown)
# output > 300 µM
